Conditions: buffer; pH 7.4; 200.0 µM
experimental_endpoint: solubility kinetic (µg/mL)
Answers are plain numbers, in µg/mL.

Solved cases below.
INSERT INTO results (compound, experimental_endpoint, result) VALUES
  ('Cc1cccc(N2C(=O)CSC23CCCCC3)c1', 'solubility kinetic', 20.3),
  ('O=C(Nc1cccc(F)c1)Nc1cnccn1', 'solubility kinetic', 6.1),
  ('COc1ccccc1NS(=O)(=O)c1cccc(NC(=O)c2cncc(Br)c2)c1', 'solubility kinetic', 6.4),
  ('CC1CCCN(C(=O)NC(=O)c2ccc(Cl)cc2)C1 (stereo not drawn)', 'solubility kinetic', 41.8),
  ('O=C(COC(=O)/C=C/c1cccc(Br)c1)NC1CCCC1', 'solubility kinetic', 4.1),
  ('Cc1ccc(NC(=O)CN(C)C(=O)c2ccc(NS(=O)(=O)c3cccc([N+](=O)[O-])c3)cc2)cc1', 'solubility kinetic', 11.6);

# input for lookup
Name the recorded solubility kinetic of the compound listed here: Cc1ccc(/C=C2/C(=O)NC(=O)N(Cc3ccc(F)cc3)C2=O)o1
11.4

---

Details: buffer; pH 7.4; 200.0 µM
experimental_endpoint: solubility kinetic

INSERT INTO results (molecule, result) VALUES
  ('O=C(OCC(=O)N1CCc2ccccc21)c1ccccn1', '> 42.3 µg/mL'),
  ('COC(=O)c1ccc(C[n+]2ccccc2)cc1.[Br-]', '> 46.2 µg/mL'),
  ('COc1ccc(CCC(=O)NCC(=O)OCc2ccccc2)cc1', '> 49.1 µg/mL');

# map each molecule to its solubility kinetic
1. Cc1ccc(-c2c(C)n([O-])c3c([n+]2=O)CCCC3)cc1
2. CCOC(=O)CNC(=O)c1c(C)nn(C)c1Cl
3. O=C(O)c1ccc2c(c1)SC1=NS(=O)(=O)CCN12
4. N#CCCN=C(NS(=O)(=O)c1ccccc1)c1ccccc1
5. O=C(c1ccccc1)N1CCN(S(=O)(=O)N2CCCCCC2)CC1

1. > 40.5 µg/mL
2. > 39 µg/mL
3. > 42.6 µg/mL
4. > 47 µg/mL
5. > 52.7 µg/mL

---

Hi there, I'd appreciate the recorded solubility kinetic for every entry that follows.
Conditions: buffer; pH 7.4; 200.0 µM

Some entries whose results are on file:
INSERT INTO measurements (compound, experimental_endpoint, result) VALUES
  ('O=C1CCCc2c1nc(-c1ccccc1F)n2O', 'solubility kinetic', '> 36.9 µg/mL'),
  ('Brc1ccc(OCc2nc3ccccc3[nH]2)cc1', 'solubility kinetic', '2.4 µg/mL'),
  ('O=C(CN1C(=O)NC2(CCCC2)C1=O)NCc1ccc(Cl)cc1', 'solubility kinetic', '> 50.4 µg/mL');

Batch request: solubility kinetic per item, same order as input.
1. S=c1[nH]ccn1-c1ccc(Cl)cc1
2. CC(C)C(=O)NC(CC(=O)O)c1ccccc1 (stereo not drawn)
3. Nc1ccc(C(=O)CC(=O)Nc2ccc(Cl)cc2)cc1
4. COc1ccc(N2C(=O)CSC2c2ccc(F)cc2)cc1 (stereo not drawn)
5. COc1ccc(C(C)(C)C)cc1NC(=O)COC(=O)CN1C(=O)NC2(CCCCC2C)C1=O (stereo not drawn)
6. O=C(COC(=O)c1cc(=O)[nH]c(=O)[nH]1)Nc1cccc(Cl)c1
7. OC(CNCc1ccc2c(c1)OCO2)COc1ccc(F)cc1 (stereo not drawn)

1: 29.2 µg/mL; 2: > 35.3 µg/mL; 3: 14.3 µg/mL; 4: > 45.5 µg/mL; 5: 38 µg/mL; 6: > 48.6 µg/mL; 7: > 47.9 µg/mL

---

Kindly supply the reported solubility kinetic values for the records listed here.
Settings: buffer; pH 7.4; 200.0 µM

INSERT INTO assay_data (compound, result) VALUES
  ('CC(=O)c1c(C)n(-c2ccc(C)cc2)c2ccc(O)cc12', '< 0.0006 mg/mL'),
  ('Cl.N=c1ccn(Cc2c(Cl)cccc2Cl)cc1', '> 0.0434 mg/mL'),
  ('Cc1c(Cl)cccc1Nc1ccccc1C(=O)O', '> 0.0393 mg/mL'),
  ('COc1cc2c(cc1OC)C(c1ccccc1N)=NCC2', '> 0.0424 mg/mL'),
  ('O=C(O)CCNC(=O)/C(=C/c1ccco1)NC(=O)c1ccco1', '> 0.0477 mg/mL');

For each of the compounds below, state solubility kinetic.
1. CSc1ccc(Cl)c(C(=O)OCC(=O)N(C)CCC#N)c1
2. CCN1CCN(S(=O)(=O)c2ccc3c4c(cccc24)C(=O)N3CC)CC1
3. CCCn1c(SCC(=O)N2CCc3ccccc3C2)nc(O)cc1=O
4. COc1nc(Nc2ccccc2F)nc(OC)n1
5. CCOC(=O)C1C(c2ccccc2O)NC(=O)NC1(O)C(F)(F)F (stereo not given)
6. O=C(Nc1cccnc1)c1cc(Cl)ccc1Cl

1. > 0.049 mg/mL
2. > 0.056 mg/mL
3. > 0.0539 mg/mL
4. > 0.0375 mg/mL
5. > 0.0522 mg/mL
6. > 0.0401 mg/mL

// each listed compound needs a value for solubility kinetic
1. COc1ccc(C(=O)CN2C(=O)COc3ccccc32)cc1
2. O=[N+]([O-])c1ccc(Cl)c(S(=O)(=O)/N=C(/Nc2cccnc2)c2ccccc2)c1
3. COc1ccc(OC)c(S(=O)(=O)NCCc2csc(-c3cccnc3)n2)c1
4. CCN(C(=O)CSc1nc2scc(-c3ccccc3)c2c(=O)n1C)C1CCS(=O)(=O)C1 (stereo not given)

["0.0431 mg/mL", "> 0.0625 mg/mL", "0.059 mg/mL", "0.0031 mg/mL"]

---

Kindly state solubility kinetic for each of the entries shown.
Conditions: buffer; pH 7.4; 200.0 µM

INSERT INTO results (compound, experimental_endpoint, result) VALUES
  ('O=C(CN1CCOCC1)Nc1ccc(F)cc1', 'solubility kinetic', '> 35.7 µg/mL'),
  ('O=C(c1ccccn1)N1CCN(c2cccc(C(F)(F)F)c2)CC1', 'solubility kinetic', '> 50.3 µg/mL'),
  ('CCOC(=O)C1CCCNC1=O (stereo not given)', 'solubility kinetic', '> 25.7 µg/mL'),
  ('Cn1c(O)c(C=Nc2ccccc2-c2ccccc2)c(=O)n(C)c1=O', 'solubility kinetic', '< 0.2 µg/mL'),
  ('CCON1C(=O)C(C)(C)N(OCC)C(=O)C1(C)C', 'solubility kinetic', '> 38.7 µg/mL');

Record solubility kinetic per entry; entries follow.
1. CC(NC(=O)C(C)(C)C)C(c1cccs1)N1CCOCC1 (stereo not given)
2. Cn1c(N)c(C(=O)COC(=O)CNC(=O)c2ccccc2)c(=O)n(C)c1=O
3. CCCN1CN=C(NS(=O)(=O)c2ccc(C)cc2)NC1
4. Cc1ccc(S(=O)(=O)NC(C)CCc2ccccc2)cc1C(N)=O (stereo not given)
5. Cc1nc(NC(=O)CCN2C(=O)C3CC=CCC3C2=O)sc1C (stereo not given)
6. O=C(CN1C(=O)C2CCCCC2C1=O)Nc1nccs1 (stereo not given)
7. Nc1ccc2nc(CCCCCCc3nc4ccc(N)cc4[nH]3)[nH]c2c1
8. Cc1ccc(S(=O)(=O)NC(=O)Nc2cccc(S(=O)(=O)N(C)C)c2)cc1

1: > 46.6 µg/mL; 2: > 56.2 µg/mL; 3: > 44.5 µg/mL; 4: > 52 µg/mL; 5: > 50 µg/mL; 6: > 44 µg/mL; 7: > 52.3 µg/mL; 8: > 59.6 µg/mL

For each listed entry, give its solubility kinetic.
1. COc1ccc(S(=O)(=O)NCC(=O)NC2CC2)cc1OC
2. CCOC(=O)C1CCN(c2ncnc3c2cnn3C)CC1

1. > 47.2 µg/mL
2. > 43.4 µg/mL

---

Details: buffer; pH 7.4; 200.0 µM
experimental_endpoint: solubility kinetic (µg/mL)
One number for each entry, in µg/mL.

Sample answers from the record:
INSERT INTO measurements (compound, experimental_endpoint, units, result) VALUES
  ('O=C(/C=C/c1ccc(Cl)c(Cl)c1)Nc1cccnc1', 'solubility kinetic', 'µg/mL', 0.6),
  ('CCN1CCN(c2nc(N(C)c3ccccc3)nc(N)c2[N+](=O)[O-])CC1', 'solubility kinetic', 'µg/mL', 49.3),
  ('COc1ccc(NC(=O)CCCCC(=O)Nc2ccc(OC)cc2OC)c(OC)c1', 'solubility kinetic', 'µg/mL', 12.4),
  ('COc1ccccc1NCC(=O)c1ccc(C)c(C)c1', 'solubility kinetic', 'µg/mL', 2.6),
  ('O=S(=O)(Nc1ccccc1O)c1cccc2cccnc12', 'solubility kinetic', 'µg/mL', 43),
  ('CC(C)CNC(=O)[C@H](Cc1ccccc1)NC(=O)c1cccs1', 'solubility kinetic', 'µg/mL', 9.6),
  ('COc1ccc(C(=O)Cn2cnc3ccccc3c2=O)cc1OC', 'solubility kinetic', 'µg/mL', 42.3),
  ('CC(C)c1cccc(C(C)C)c1OC(=O)NC(=O)c1c(F)cccc1F', 'solubility kinetic', 'µg/mL', 17.4);

Batch request: solubility kinetic for each of the following compounds.
1. COc1ccc(CCNC(=O)c2ccc3ccccc3n2)cc1
2. COc1ccc(-n2c(=S)[nH]c(=O)c3cccnc32)cc1
3. O=C(CNC(=O)Cc1cccc2ccccc12)NCc1ccccc1F
4. COC(=O)[C@@H](NC(=O)N1CCC(C)CC1)C(C)C
5. C#CCOc1ccccc1/C=C1/C(=O)ON=C1C
6. CCOc1cccc(C(=O)NC2=NCCS2)c1
7. O/N=C/c1ccc(-c2ccccc2OC(F)(F)F)o1
8. Cc1cccc(CN2CCN(c3ncccn3)CC2)c1

1: 22.2; 2: 11; 3: 36.5; 4: 34; 5: 34.9; 6: 26.1; 7: 1.7; 8: 30.6

Batch request: solubility kinetic per item, same order as input.
1. C/C(=C\C(=O)c1ccc(Cl)cc1Cl)N(C)C
2. C/C=C/C(=O)N1c2ccc(C)cc2C(C)=CC1(C)C
3. CCC(C)NC(=O)Cn1c(=O)sc2ccccc21 (stereo unspecified)
4. Cc1ccccc1CCN1CCCC(CN(C)CC(C)(C)C)C1 (stereo unspecified)
5. Cc1sc(NC(=O)COc2ccccc2)c(C#N)c1C
6. Cc1ccc(-c2csc(NC(=O)CN3CC(C)OC(C)C3)n2)cc1 (stereo unspecified)
7. Cc1noc(C(=O)Nc2cccc(Cl)c2)c1Cl

3.8
1.2
33.6
15
0.5
29.5
2

Fill in reported solubility kinetic for this entry: O=C1COc2ccc(S(=O)(=O)NCCc3ccccc3)cc2N1
13
